biological target: DOPr (Homo sapiens); construct: host or cells: CHO; assay: biochemical; conditions: ratio of [35S]GTPγS EC50
Sequence (P41143 whole entry): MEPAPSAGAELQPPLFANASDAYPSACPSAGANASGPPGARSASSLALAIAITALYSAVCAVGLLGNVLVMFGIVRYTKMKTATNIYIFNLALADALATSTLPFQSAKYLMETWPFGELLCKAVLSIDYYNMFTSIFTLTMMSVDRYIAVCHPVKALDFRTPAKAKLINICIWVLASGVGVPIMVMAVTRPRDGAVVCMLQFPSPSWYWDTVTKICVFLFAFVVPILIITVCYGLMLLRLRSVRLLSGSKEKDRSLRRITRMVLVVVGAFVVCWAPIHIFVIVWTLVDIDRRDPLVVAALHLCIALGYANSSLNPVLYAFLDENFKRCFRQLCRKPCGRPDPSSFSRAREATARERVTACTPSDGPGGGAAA
measurement.label: Selectivity DOPr/MOPr (EC50)
One number for each entry.

[
  {
    "compound.structure.string": "CN1CC[C@]23c4c5ccc(O)c4O[C@H]2C(=O)/C(=C/c2ccc(O)cc2)C[C@@]3(O)[C@H]1C5",
    "measured.value": 0.35
  },
  {
    "compound.structure.string": "CN1CC[C@]23c4c5ccc(O)c4O[C@H]2C(=O)/C(=C/c2ccc([N+](=O)[O-])cc2)C[C@@]3(O)[C@H]1C5",
    "measured.value": 9.1
  }
]

Turning now to a further molecule:
Record COc1ccc(/C=C2\C[C@@]3(O)[C@H]4Cc5ccc(O)c6c5[C@@]3(CCN4C)[C@@H](O6)C2=O)cc1 : what is its Selectivity DOPr/MOPr (EC50) with DOPr (Homo sapiens)?
0.59

====

biological target: DOPr (Homo sapiens); construct: host or cells: CHO; assay: biochemical; format: binding; details: Gibb's free energy converted from experimental Ki
measurement.label: DOPr ΔG (kcal/mol)
Answers are plain numbers, in kcal/mol.

[
  {
    "compound.structure.string": "COc1ccc(/C=C2\\C[C@@]3(O)[C@H]4Cc5ccc(O)c6c5[C@@]3(CCN4C)[C@@H](O6)C2=O)cc1",
    "system": "DOPr (Homo sapiens)",
    "measurement.label": "DOPr ΔG",
    "unit.spec": "kcal/mol",
    "measured.value": -10.20
  },
  {
    "compound.structure.string": "CN1CC[C@]23c4c5ccc(O)c4O[C@H]2C(=O)/C(=C/c2ccc(Br)cc2)C[C@@]3(O)[C@H]1C5",
    "system": "DOPr (Homo sapiens)",
    "measurement.label": "DOPr ΔG",
    "unit.spec": "kcal/mol",
    "measured.value": -9.50
  }
]

For each entry beneath this line, provide reported DOPr ΔG.
1. CN1CC[C@]23c4c5ccc(O)c4O[C@H]2C(=O)/C(=C/c2ccc(Cl)cc2)C[C@@]3(O)[C@H]1C5
2. CN1CC[C@]23c4c5ccc(O)c4O[C@H]2C(=O)/C(=C/c2ccc(F)cc2)C[C@@]3(O)[C@H]1C5

1. -10.06
2. -9.97

Requested field: DOPr ΔG. Item: CN1CC[C@]23c4c5ccc(O)c4O[C@H]2C(=O)/C(=C/c2ccc4ccccc4c2)C[C@@]3(O)[C@H]1C5
-10.22

====

target: DOPr (Homo sapiens); construct: host or cells: CHO; test: biochemical; settings: read-out: DOPr Emax ±SEM
Please provide measured Emax for the entries that follow.

[
  {
    "molecule": "CN1CC[C@]23c4c5ccc(O)c4O[C@H]2C(=O)/C(=C/c2ccc(F)cc2)C[C@@]3(O)[C@H]1C5 [Compound 7]",
    "measured.value": "< 15%"
  },
  {
    "molecule": "CN1CC[C@]23c4c5ccc(O)c4O[C@H]2C(=O)/C(=C/c2ccc4ccccc4c2)C[C@@]3(O)[C@H]1C5 [Compound 14]",
    "measured.value": "< 15%"
  }
]

Turning now to a further molecule:
Requested field: Emax. Item: CN1CC[C@]23c4c5ccc(O)c4O[C@H]2C(=O)/C(=C/c2ccc(Br)cc2)C[C@@]3(O)[C@H]1C5 [Compound 9]
< 15%
